- Test system: Mus musculus
- Assay protocol: Oral bioavailability in mouse
- Type: ADME, organism-based
- Measurement parameters: in vivo
Measurement name: F (%)
Give just the number in %; leave the unit off.

Exercise: Please report the recorded F for COc1cc(/C=N/NC(=O)C(OC)c2ccc(-n3cccn3)cc2)cc(OC)c1Br (racemic) .
Solution: 48

Exercise: Record: COc1cc(/C=N/NC(=O)C(OC)c2ccc(N3CCOCC3)cc2)cc(OC)c1Br (single isomer, unassigned; enantiomer 1)
Solution: 91

Exercise: Record: COc1cc(/C=N/NC(=O)C(OC)c2ccc(-n3cccn3)cc2)cc(OC)c1Br (stereo in doubt; 61)
Solution: 92

Exercise: Record: COc1cc(/C=N/NC(=O)C(OC)c2ccc(N3CCOCC3)cc2)cc(OC)c1Br (racemic)
Solution: 63

====

- Assay protocol: Ratio of drug level in brain to plasma in mouse
- Type: ADME, organism-based
- Measurement parameters: brain and plasma, read-out: BPR
Measurement name: Kp
Write the number on its own, no unit after it.

Exercise: Please report the recorded Kp for COc1cc(/C=N/NC(=O)C(OC)c2ccc(N3CCOCC3)cc2)cc(OC)c1Br (single isomer, unassigned; enantiomer 1) .
Solution: 0.27

Just for reference, ChEMBL document CHEMBL2069174 is where these values come from.
